Let's look at some compounds and their measured Inhibition.
- Test system: Plasmodium falciparum
- ASSAY SUMMARY: GSK_TCMDC: Inhibition of Plasmodium falciparum 3D7 in whole red blood cells, using parasite LDH activity as an index of growth. Test compounds present at 2uM
- Type: functional
MEASUREMENT NAME: Inhibition (%)

compound="COc1cccc(CN2CCCC(COC(c3ccc(F)cc3)c3ccc(F)cc3)C2)c1O (stereo not drawn)" subject_of_test="Plasmodium falciparum" uom=% readout_value=98
compound=Cc1ccc(Nc2nnc(SCC(=O)Nc3ccc(CN4CCCC4)cc3)s2)cc1 subject_of_test="Plasmodium falciparum" uom=% readout_value=91
compound="C=CC(C)C1OC(=O)c2cc(OC)cc(OC)c21 (stereo not drawn)" subject_of_test="Plasmodium falciparum" uom=% readout_value=100
compound=COC(=O)c1ccc(-c2ccc(-c3cccnc3)cc2C)cc1 subject_of_test="Plasmodium falciparum" uom=% readout_value=100
compound="CCOc1cc(Br)c(C(C)NC(=O)c2cccc(OC)c2)cc1OCC (stereo not drawn)" subject_of_test="Plasmodium falciparum" uom=% readout_value=90
compound=COc1cc(NCCCNCC2c3ccccc3Oc3ccccc32)nc2ccccc12.O=C(O)C(F)(F)F subject_of_test="Plasmodium falciparum" uom=% readout_value=99
compound=CCN(CC)CCN(Cc1ccc(-c2ccc(C(F)(F)F)cc2)cc1)C(=O)c1ccc(-c2ccc(C#N)cc2)cc1 subject_of_test="Plasmodium falciparum" uom=% readout_value=89
compound="FC(F)(F)c1ccc2[nH]c(-c3cccc(-c4ccc(CNCC5CCCO5)cc4)c3)nc2c1.O=C(O)C(F)(F)F (stereo not drawn)" subject_of_test="Plasmodium falciparum" uom=% readout_value=99
compound=CC(=O)N(C)c1ccc(C(=O)Nc2cccc(-c3cccc(-c4nc5cc(C(F)(F)F)ccc5[nH]4)c3)c2)cc1 subject_of_test="Plasmodium falciparum" uom=% readout_value=96
compound=COc1ccc2c(NN=Cc3ccncc3)ccnc2c1 subject_of_test="Plasmodium falciparum" uom=% readout_value=95
compound=Cc1cc(F)ccc1[C@H]1CNCCN1C(=O)N(C)C(C)(C)c1cc(C(F)(F)F)cc(C(F)(F)F)c1.Cl subject_of_test="Plasmodium falciparum" uom=% readout_value=100
compound=CN(C)c1nc2cc(-n3cnc4cc(-c5ccc(Cl)cc5)sc4c3=O)ccc2n1CCCN1CCCCC1.O=C(O)C(F)(F)F subject_of_test="Plasmodium falciparum" uom=% readout_value=97
compound=CCn1cc(C(=O)O)c(=O)c2cc(F)c(N3CCN(S(=O)(=O)c4ccc(N)cc4)CC3)cc21 subject_of_test="Plasmodium falciparum" uom=% readout_value=90

* * *

- Test system: Plasmodium falciparum
- ASSAY SUMMARY: GSK_TCMDC: Inhibition of Plasmodium falciparum Dd2 in whole red blood cells, using parasite LDH activity as an index of growth. Test compounds present at 2uM
- Type: functional
The entries below come with measured Inhibition values attached.
MEASUREMENT NAME: Inhibition

compound=Cc1ccc(C(=O)NC2CCN(CCNC(=O)Nc3cc(C)nc4ccccc34)CC2)cc1 readout_value=76%
compound=CC(C)NCc1ccc(-c2ccc(NS(=O)(=O)c3cccc4cccnc34)cc2)cc1.O=C(O)C(F)(F)F readout_value=45%
compound=CN1CCN(CCCN(Cc2cccc(-c3cccc(CNCCc4ccccc4)c3)c2)C(=O)Nc2ccccc2)CC1.O=C(O)C(F)(F)F readout_value=82%
compound="CC(CNCc1cn(Cc2cc(Br)cc(Br)c2)c2ccccc12)CNc1cc(=O)c2ccccc2[nH]1 (stereo not drawn)" readout_value=50%
compound=Cc1ccc(-n2c(=O)c3c(n4c(SC(C)C)nnc24)-c2ccccc2CC32CCCCC2)cc1 readout_value=88%
compound=O=C(NCc1cccc(F)c1)Nc1ccc(-c2cccc(-c3nc4ccccc4[nH]3)c2)cc1 readout_value=2%
compound="CC(=O)Nc1ccc2[nH]cc(C3CCN(CC4CCC(NC(=O)/C=C/c5ccc(Cl)c(Cl)c5)CC4)CC3)c2n1 (stereo not drawn)" readout_value=79%
compound=C=CC[C@H](C[C@H](O)[C@H](Cc1ccccc1)NC(=O)c1ccc(-c2cccnn2)cc1)C(=O)NC1CCCCC1 readout_value=0%

* * *

- System: HepG2
- ASSAY SUMMARY: GSK_TCMDC: Percent inhibition of human HepG2 cell line. Test compounds present at 10uM.
- Format: functional
The following compounds are shown together with reported Inhibition values.
MEASUREMENT NAME: Inhibition (%)

structure_smiles_string=COc1ccc2c(NN=Cc3ccccc3Cl)ccnc2c1 readout_value=10
structure_smiles_string=O=C(/C=C/c1ccc(C(F)(F)F)cc1)NCCCCCN1CCN(C(=O)Nc2ccc(Cl)c(Cl)c2)CC1 readout_value=37
structure_smiles_string=Cc1cc(N)nc2ccc(-c3ccc(CN)cc3)cc12 readout_value=4
structure_smiles_string=CC(C)OC(=O)c1ccccc1S(N)(=O)=O readout_value=0
structure_smiles_string=Cc1cc(Cl)ccc1N(Cc1ccccc1)c1ccnc(Cl)n1 readout_value=16
structure_smiles_string=CCN(CC)CCNc1ccnc2[nH]c3ccc([N+](=O)[O-])cc3c12 readout_value=6
structure_smiles_string=CCNc1cc(C(=O)N[C@@H](Cc2ccccc2)[C@H](O)CNCCc2ccccc2)cc(N2CCCC2=O)c1.O=C(O)C(F)(F)F readout_value=0
structure_smiles_string=O=C(N[C@H]1CCN(Cc2ccc(OCCCN3CCCCC3)cc2)C1)c1ccc(Cl)c(Cl)c1 readout_value=27
structure_smiles_string=O=C(CSc1nc2ccccc2c(=O)n1C1CC1)Nc1cc(C(F)(F)F)ccc1Cl readout_value=5
structure_smiles_string=FC(F)(F)c1ccc2[nH]c(-c3ccc(-c4ccc(CNCc5ccccc5)cc4)cc3)nc2c1.O=C(O)C(F)(F)F readout_value=22

* * *

// reported Inhibition per item
- System: Plasmodium falciparum
- ASSAY SUMMARY: GSK_TCMDC: Inhibition of Plasmodium falciparum Dd2 in whole red blood cells, using parasite LDH activity as an index of growth. Test compounds present at 2uM
- Format: functional
MEASUREMENT NAME: Inhibition (%)

structure_smiles_string=N=C(N)NC(=O)Nc1cc(F)c(Cl)c(Br)c1 readout_value=50
structure_smiles_string=O=C(NCc1cccc2ccccc12)c1ccc(CNC2CCN(Cc3ccccc3)CC2)cc1.O=C(O)C(F)(F)F readout_value=88
structure_smiles_string=CC1(C)CCC(C)(C)c2c1ccc(C1CCN(CCCCNC(=O)c3ccc(-c4ccc(C#N)cc4)cc3)CC1)c2O readout_value=85
structure_smiles_string=CCCNC[C@@H](O)[C@H](Cc1ccccc1)NC(=O)c1cc(NCC)cc(N2CCCC2=O)c1 readout_value=76
structure_smiles_string=NS(=O)(=O)Cc1cccc(-c2ccnc3ccc(-c4cccc(S(N)(=O)=O)c4)cc23)c1 readout_value=42
structure_smiles_string=O=C(NCCCc1ccccc1)c1ccc(O)c(-c2cc(Cl)cc(Cl)c2)c1 readout_value=98
structure_smiles_string=Cc1cc2nc(-c3ccc(OCC(=O)NCc4cccc(C(F)(F)F)c4)cc3)[nH]c2cc1C readout_value=1

* * *

- Test system: HepG2
- ASSAY SUMMARY: GSK_TCMDC: Percent inhibition of human HepG2 cell line. Test compounds present at 10uM.
- Type: functional
A collection of compounds and their measured Inhibition
MEASUREMENT NAME: Inhibition

compound=CC(C)(C)c1ccc(CNC(=O)/C=C/c2ccc(-c3nc4cc(C(C)(C)C)ccc4[nH]3)cc2)cc1 subject_of_test=HepG2 readout_value=35%
compound="COc1ccc(OC)c2c1CC1NCC2c2c(OC)ccc(OC)c21.Cl (stereo not drawn)" subject_of_test=HepG2 readout_value=2%
compound="Cc1cccc2nc(-c3ccc(-c4ccc(CN5CCN(CC6CCCN(C)C6)CC5)cc4)s3)[nH]c12.O=C(O)C(F)(F)F (stereo not drawn)" subject_of_test=HepG2 readout_value=63%

* * *

- Tested on: Plasmodium falciparum
- ASSAY SUMMARY: GSK_TCMDC: Inhibition of Plasmodium falciparum Dd2 in whole red blood cells, using parasite LDH activity as an index of growth. Test compounds present at 2uM
- Format: functional
MEASUREMENT NAME: Inhibition

compound=CCCCNC(=O)[C@@H]1CCCN1C(=O)c1ccc(O)c(-c2ccc(Cl)c(Cl)c2)c1 readout_value=92%
compound="N#Cc1cccc(C(=O)NC2CCN(c3ccnc(Nc4ccc(F)cc4)n3)C2)c1 (stereo not drawn)" readout_value=91%
compound=CC(C)NCC(=O)Nc1cccc(C(=O)Nc2cccc(C(F)(F)F)c2)c1 readout_value=89%

* * *

- Test system: Plasmodium falciparum
- ASSAY SUMMARY: GSK_TCMDC: Inhibition of Plasmodium falciparum Dd2 in whole red blood cells, using parasite LDH activity as an index of growth. Test compounds present at 2uM
- Type: functional
# key: entry, value: Inhibition
MEASUREMENT NAME: Inhibition

molecule="COc1cc(CC2c3cc(O)c(Cl)cc3CCN2C)c(OC)cc1C.Cl (stereo not drawn)" readout_value=88%
molecule=CCOc1ccc2ccccc2c1CNCCCCCCNCc1c(OCC)ccc2ccccc12.CS(=O)(=O)O readout_value=89%
molecule="CC(C)C[C@H](NC(=O)c1cc2cc(OCCN3CCNCC3)ccc2o1)C(=O)NC1CC[C@@H](C)N(C(=O)Nc2ccc(Cl)cc2)CC1=O.O=C(O)C(F)(F)F (stereo partly drawn)" readout_value=92%

From: ChEMBL document CHEMBL1157539
